Tested on: NO production in LPS-stimulated RAW 264.7 macrophages
Test Description: NO production (Griess assay) in LPS-stimulated macrophages
Type: cell-based, murine
Conditions Used: Mus musculus, RAW264.7, 24 h, RAW 264.7, LPS 100 ng/mL, Griess
pIC50: −log10 of the molar value.

>  <Smiles Representation>
COc1cccc(/C=C/C(=O)c2c(Br)c(Br)cc(OC)c2OC)c1OC

>  <pIC50>
6.00

$$$$
>  <Smiles Representation>
COc1cc(Br)cc(/C=C/C(=O)c2c(Br)c(Br)cc(OC)c2OC)c1OC

>  <pIC50>
6.01

$$$$
>  <Smiles Representation>
COc1cccc(/C=C/C(=O)c2cccc(OC)c2OC)c1OC

>  <pIC50>
5.23

$$$$
>  <Smiles Representation>
COc1ccc(/C=C/C(=O)c2ccc(OC)c(OC)c2)cc1OC

>  <pIC50>
5.33

$$$$
>  <Smiles Representation>
COc1ccc(/C=C/C(=O)c2cc(OC)c(OC)cc2Br)cc1OC

>  <pIC50>
6.11

$$$$
>  <Smiles Representation>
COc1cc(Br)c(/C=C/C(=O)c2cc(OC)c(OC)cc2Br)cc1OC

>  <pIC50>
6.24

$$$$
